target: MBI_CD19_1; (SAR3419); assay: BLI Octet, antibody on anti-human Fc tip, peptide 333 nM
Sequence (chain, as listed by the source, chain 1 of 2): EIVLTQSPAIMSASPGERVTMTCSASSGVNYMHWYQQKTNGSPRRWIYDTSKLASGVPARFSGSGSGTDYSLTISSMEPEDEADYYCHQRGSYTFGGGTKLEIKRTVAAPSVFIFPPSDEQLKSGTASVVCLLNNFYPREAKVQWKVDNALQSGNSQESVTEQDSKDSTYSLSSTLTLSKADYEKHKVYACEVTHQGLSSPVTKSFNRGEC
Sequence (chain, as listed by the source, chain 2 of 2): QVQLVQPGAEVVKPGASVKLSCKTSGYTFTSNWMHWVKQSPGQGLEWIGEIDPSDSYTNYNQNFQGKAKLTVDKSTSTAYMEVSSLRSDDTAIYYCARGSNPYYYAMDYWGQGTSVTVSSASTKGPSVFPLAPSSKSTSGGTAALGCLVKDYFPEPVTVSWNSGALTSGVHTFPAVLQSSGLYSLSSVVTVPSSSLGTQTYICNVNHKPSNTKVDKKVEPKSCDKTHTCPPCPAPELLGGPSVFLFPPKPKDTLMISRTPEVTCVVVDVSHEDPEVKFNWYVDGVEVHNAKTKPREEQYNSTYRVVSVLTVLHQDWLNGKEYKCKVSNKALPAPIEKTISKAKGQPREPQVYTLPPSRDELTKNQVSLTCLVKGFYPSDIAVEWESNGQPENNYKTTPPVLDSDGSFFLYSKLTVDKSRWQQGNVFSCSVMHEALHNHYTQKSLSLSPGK
experimental.readout: Kd (nM)
Write it as a number; the unit nM goes unstated.

Would you mind telling me what Kd value was observed for CQFDLSTRRLRC (modifications not checked) [Peptide 22: DM1 conjugated cQFD (cQFD-DM1)] ? 5.23
